src = the Immune Epitope Database (IEDB)

Reported pKd values are given for each entry in this list.
# subject.of.test: HLA-B*15:01
# protocol.details: IEDB peptide-MHC binding, purified MHC/competitive/radioactivity; filed as Kd, often an IC50 or EC50 that approximates it; bounds were set here for any values at or beyond the usual limits of such assays
# conditions: source organism: Dengue virus 1 Brazil/97-11/1997
pKd: −log10 of the molar value.
measured.quantity: pKd

| sequence.content | value |
| --- | --- |
| AQNALDNLVM | 8.69 |
| AQMWQLMYF | 8.80 |

---

# subject.of.test: HLA-B*27:05
# protocol.details: IEDB peptide-MHC binding, purified MHC/direct/fluorescence; filed as Kd, often an IC50 or EC50 that approximates it; bounds were set here for any values at or beyond the usual limits of such assays
# conditions: source organism: Zaire ebolavirus

| sequence.content | unit.annotation | Kd |
| --- | --- | --- |
| DRLASTVIY | µM | 8.77 |
